For each of the compounds below, state its IC50.
target: human SGLT5 (Homo sapiens, UniProt A0PJK1); construct: expressed in transfected cells; test: Inhibition of 10 µM radiolabelled 1,5-AG transport in HEK293T cells overexpressing human SGLT5; assay type: cell-based; conditions: substrate 10 μM 1,5-AG, unlabelled sugars, Fig. 3C; read-out: hSGLT5 IC50
Sequence (A0PJK1 whole entry): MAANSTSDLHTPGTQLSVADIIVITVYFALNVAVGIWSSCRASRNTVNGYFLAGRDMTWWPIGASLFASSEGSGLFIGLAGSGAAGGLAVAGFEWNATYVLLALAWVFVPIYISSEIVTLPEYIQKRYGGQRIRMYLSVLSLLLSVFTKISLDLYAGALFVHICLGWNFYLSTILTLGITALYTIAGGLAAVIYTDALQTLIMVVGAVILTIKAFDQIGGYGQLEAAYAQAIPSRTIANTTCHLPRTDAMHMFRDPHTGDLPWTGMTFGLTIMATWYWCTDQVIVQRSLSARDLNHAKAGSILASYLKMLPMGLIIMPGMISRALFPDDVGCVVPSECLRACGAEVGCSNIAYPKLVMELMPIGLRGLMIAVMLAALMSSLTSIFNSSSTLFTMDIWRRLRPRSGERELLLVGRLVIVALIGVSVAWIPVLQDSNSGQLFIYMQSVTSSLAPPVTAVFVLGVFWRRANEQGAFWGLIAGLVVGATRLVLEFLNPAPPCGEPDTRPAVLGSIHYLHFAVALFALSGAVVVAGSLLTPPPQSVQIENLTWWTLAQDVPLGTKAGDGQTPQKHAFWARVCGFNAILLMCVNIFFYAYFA
The reply should be a number in µM, with the unit left off.

[Q] Give the value of IC50 reported for the following: OC[C@H]1OC[C@H](O)[C@@H](O)[C@@H]1O [1,5-AG, 1,5-anhydroglucitol]
[A] 167

[Q] Fill in IC50 for record OC[C@H]1OC(O)[C@H](O)[C@@H](O)[C@@H]1O (some centres unmarked)
[A] 3650

[Q] # return recorded IC50 for entry O=C1CO[C@H](CO)[C@@H](O)[C@@H]1O [1,5-AF, 1,5-anhydrofructose]
[A] 179

[Q] Indicate the recorded IC50 value for this compound: OC[C@H]1OC(O)[C@@H](O)[C@@H](O)[C@@H]1O (some centres unmarked)
[A] 380

[Q] // Input: OC[C@H]1OC[C@@H](O)[C@@H](O)[C@@H]1O [1,5-AM, 1,5-anhydromannitol] . Output its IC50 only.
[A] 13

* * *

target: human SGLT5 (Homo sapiens, UniProt A0PJK1); construct: expressed in transfected cells; assay: Inhibition of 10 µM radiolabelled 1,5-AG transport in HEK293T cells overexpressing human SGLT5; format: cell-based; conditions: 10 µM 2-[1H+3H]-1,5-AG, Fig. 5C; read-out: IC50 for SGLT5-mediated 1,5-AG transport (gliflozins)
MEASUREMENT_TYPE: IC50 (nM)
The reply should contain only the number, in nM.

[Q] Look up and state reported IC50 for OC[C@H]1O[C@@H](c2ccc(Cl)c(Cc3ccc(O[C@H]4CCOC4)cc3)c2)[C@H](O)[C@@H](O)[C@@H]1O
[A] 700

[Q] Output IC50 of CCOc1ccc(Cc2cc([C@@H]3O[C@H](CO)[C@@H](O)[C@H](O)[C@H]3O)ccc2Cl)cc1
[A] 400

* * *

Target: human SGLT4 (Homo sapiens, UniProt Q2M3M2)
Sequence (Q2M3M2 1-681): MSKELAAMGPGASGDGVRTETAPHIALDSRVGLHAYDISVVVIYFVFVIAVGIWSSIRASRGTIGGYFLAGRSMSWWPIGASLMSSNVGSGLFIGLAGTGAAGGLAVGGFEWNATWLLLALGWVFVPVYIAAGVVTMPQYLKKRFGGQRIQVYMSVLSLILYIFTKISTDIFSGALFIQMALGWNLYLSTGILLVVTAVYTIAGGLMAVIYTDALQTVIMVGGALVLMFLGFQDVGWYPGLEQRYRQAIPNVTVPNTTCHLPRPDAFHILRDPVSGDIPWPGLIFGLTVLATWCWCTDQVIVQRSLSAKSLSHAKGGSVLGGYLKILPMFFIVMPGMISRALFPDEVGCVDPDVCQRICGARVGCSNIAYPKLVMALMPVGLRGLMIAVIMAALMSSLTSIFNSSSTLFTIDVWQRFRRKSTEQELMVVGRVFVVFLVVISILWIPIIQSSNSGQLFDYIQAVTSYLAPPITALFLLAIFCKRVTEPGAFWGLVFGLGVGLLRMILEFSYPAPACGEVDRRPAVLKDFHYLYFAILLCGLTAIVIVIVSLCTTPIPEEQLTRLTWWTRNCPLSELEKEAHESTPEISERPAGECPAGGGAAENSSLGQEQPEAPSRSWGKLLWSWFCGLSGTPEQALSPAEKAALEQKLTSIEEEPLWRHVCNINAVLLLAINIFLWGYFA
Assay: Inhibition of 10 µM radiolabelled mannose transport in HEK293T cells overexpressing human SGLT4
Settings: substrate 10 μM mannose, Fig. 3C; read-out: hSGLT4 IC50
For each of the compounds below, state its IC50.
The answer is to be given in mM; state only the numeric part.

[Q] Find the measured IC50 of OC[C@H]1OC(O)[C@@H](O)[C@@H](O)[C@@H]1O (some centres unmarked) and report it.
[A] 0.125

[Q] Tell us which IC50 value is on record for OC[C@H]1OC[C@@H](O)[C@@H](O)[C@@H]1O [1,5-AM, 1,5-anhydromannitol]
[A] 2.3

* * *

target: human SGLT5 (Homo sapiens, UniProt A0PJK1); construct: expressed in transfected cells; assay: Inhibition of 10 µM radiolabelled 1,5-AG transport in HEK293T cells overexpressing human SGLT5; assay type: cell-based
MEASUREMENT_TYPE: pIC50
// returns pIC50 (minus log10 of molar concentration), number only

[Q] State, for human SGLT5 (Homo sapiens, UniProt A0PJK1), measured pIC50 of the molecule listed here: O=C(CO)[C@@H](O)[C@H](O)[C@H](O)CO [Fructose, fructose]
[A] 3.14

* * *

target: human SGLT5 (Homo sapiens, UniProt A0PJK1); construct: expressed in transfected cells; assay: Inhibition of 10 µM radiolabelled 1,5-AG transport in HEK293T cells overexpressing human SGLT5; type: cell-based; conditions: 10 µM 2-[1H+3H]-1,5-AG, Supplementary Fig. 7; read-out: IC50 for 1,5-AG, SGLT5-WT
MEASUREMENT_TYPE: pIC50
pIC50 field: float, defined as -log10 of concentration (mol/L).

[Q] Supply pIC50 measured with human SGLT5 (Homo sapiens, UniProt A0PJK1) for OC[C@H]1OC[C@H](O)[C@@H](O)[C@@H]1O [1,5-AG, 1,5-anhydroglucitol] .
[A] 3.79
